Listed here are compounds together with their documented viability, T/C.
- System: MDA-MB-231 multicell spheroids, viability
- assay details: Anticancer human tumor MDA-MB-231 cell line growth inhibition [PI3K];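 further: spheroids exposed to agents for seven days before reading; percent of vehicle control luminescence with DMSO treated spheroids as 100%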
- stated conditions: second compound 0.316 µM; first compound 1 µM; hits give low values

Solved entries:
{"columns": ["compound", "viability, T/C"],
 "data": [
  ["C=CC(=O)N1CCN(c2nc(=O)n(-c3c(C)ccnc3C(C)C)c3nc(-c4c(O)cccc4F)c(F)cc23)C(C)C1 (stereo not given) + CC(Nc1ncnc2nc[nH]c12)c1cc2cccc(Cl)c2c(=O)n1-c1ccccc1", "115%"],
  ["CC1(C)CCC(Nc2ncc(C(F)(F)F)c(-c3c[nH]c4c(P(C)(C)=O)c(C#N)ccc34)n2)CN1 (stereo not given) + CC(Nc1ncnc2nc[nH]c12)c1cc2cccc(Cl)c2c(=O)n1-c1ccccc1", "48.6%"],
  ["CC(Cn1ccc(-c2ccc(C#N)c(Cl)c2)n1)NC(=O)c1cc(C(C)O)[nH]n1 (stereo not given) + Cc1nc(NC(=O)N2CCCC2C(N)=O)sc1-c1ccnc(C(C)(C)C(F)(F)F)c1", "72.5%"],
  ["C[C@@H](NC(=O)c1ncnc(N)c1Cl)c1ncc(C(=O)Nc2cc(C(F)(F)F)c(Cl)cn2)s1 + COc1c(OCCCN2CCOCC2)ccc2c3n(c(=NC(=O)c4cnc(N)nc4)nc12)CCN3", "23.4%"]
]}

**Query** Given the entry C#Cc1c(F)ccc2cc(O)cc(-c3ncc4c(N5CC6CCC(C5)N6)nc(OCC56CCCN5CC(F)C6)nc4c3F)c12 (stereo not given) + CC(Nc1ncnc2nc[nH]c12)c1cc2cccc(Cl)c2c(=O)n1-c1ccccc1 , report its measured viability, T/C.
**Result** 86.4%

###

- System: MDA-MB-231 multicell spheroids, viability
- assay details: Anticancer human tumor MDA-MB-231 cell line growth inhibition [PI3K];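 further: spheroids exposed to agents for seven days before reading; percent of vehicle control luminescence with DMSO treated spheroids as 100%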
- stated conditions: second compound 0.0316 µM; first compound 0.1 µM; hits give low values
measurement kind: viability, T/C (%)
Give your result in % as a bare value.

{"columns": ["compound", "measurement kind", "reported value"],
 "data": [
  ["CC1(C)CCC(CN2CCN(c3ccc(C(=O)NS(=O)(=O)c4ccc(NCC5CCOCC5)c([N+](=O)[O-])c4)c(Oc4cnc5[nH]ccc5c4)c3)CC2)=C(c2ccc(Cl)cc2)C1 + CC(Nc1ncnc2nc[nH]c12)c1cc2cccc(Cl)c2c(=O)n1-c1ccccc1", "viability, T/C", 96.9],
  ["CC(C)NCC(C(=O)N1CCN(c2ncnc3c2C(C)CC3O)CC1)c1ccc(Cl)cc1 (stereo not given) + Cc1nc(NC(=O)N2CCCC2C(N)=O)sc1-c1ccnc(C(C)(C)C(F)(F)F)c1", "viability, T/C", 95.9],
  ["CC1(C)CCC(CN2CCN(c3ccc(C(=O)NS(=O)(=O)c4ccc(NCC5CCOCC5)c([N+](=O)[O-])c4)c(Oc4cnc5[nH]ccc5c4)c3)CC2)=C(c2ccc(Cl)cc2)C1 + Cc1nc(NC(=O)N2CCCC2C(N)=O)sc1-c1ccnc(C(C)(C)C(F)(F)F)c1", "viability, T/C", 101]
]}

**Query** Given the entry C=CC(=O)N1CCN(c2nc(=O)n(-c3c(C)ccnc3C(C)C)c3nc(-c4c(O)cccc4F)c(F)cc23)C(C)C1 (stereo not given) + CC(Nc1ncnc2nc[nH]c12)c1cc2cccc(Cl)c2c(=O)n1-c1ccccc1 , report its measured viability, T/C.
**Result** 110

**Query** Given the entry Cn1ncc(Cl)c1-c1cc(C(=O)NC(CN)Cc2cccc(F)c2)sc1Cl (stereo not given) + COc1c(OCCCN2CCOCC2)ccc2c3n(c(=NC(=O)c4cnc(N)nc4)nc12)CCN3 , report its measured viability, T/C.
**Result** 61.5

**Query** Given the entry CCCS(=O)(=O)Nc1ccc(F)c(C(=O)c2c[nH]c3ncc(-c4ccc(Cl)cc4)cc23)c1F + CC(Nc1ncnc2nc[nH]c12)c1cc2cccc(Cl)c2c(=O)n1-c1ccccc1 , report its measured viability, T/C.
**Result** 109

**Query** Given the entry CNC(=O)c1ccc(N2C(=S)N(c3ccc(C#N)c(C(F)(F)F)c3)C(=O)C2(C)C)cc1F + Cc1nc(NC(=O)N2CCCC2C(N)=O)sc1-c1ccnc(C(C)(C)C(F)(F)F)c1 , report its measured viability, T/C.
**Result** 94

**Query** Given the entry C[C@@H](NC(=O)c1ncnc(N)c1Cl)c1ncc(C(=O)Nc2cc(C(F)(F)F)c(Cl)cn2)s1 + Cc1nc(NC(=O)N2CCCC2C(N)=O)sc1-c1ccnc(C(C)(C)C(F)(F)F)c1 , report its measured viability, T/C.
**Result** 77.8

**Query** Given the entry Cn1nccc1Nc1nccc(-c2ccn(C(CO)c3ccc(Cl)c(F)c3)c(=O)c2)n1 (stereo not given) + CC(Nc1ccc2c(c1)OCCn1cc(N3C(=O)OCC3C(F)F)nc1-2)C(N)=O , report its measured viability, T/C.
**Result** 56.4

**Query** Given the entry C=CC(=O)N1CCN(c2nc(=O)n(-c3c(C)ccnc3C(C)C)c3nc(-c4c(O)cccc4F)c(F)cc23)C(C)C1 (stereo not given) + CC(Nc1ccc2c(c1)OCCn1cc(N3C(=O)OCC3C(F)F)nc1-2)C(N)=O , report its measured viability, T/C.
**Result** 86.1
